All values here come from ChEMBL document CHEMBL5291721.

Reported AC50 is given for each of the following molecules.
Protein target, amino acids: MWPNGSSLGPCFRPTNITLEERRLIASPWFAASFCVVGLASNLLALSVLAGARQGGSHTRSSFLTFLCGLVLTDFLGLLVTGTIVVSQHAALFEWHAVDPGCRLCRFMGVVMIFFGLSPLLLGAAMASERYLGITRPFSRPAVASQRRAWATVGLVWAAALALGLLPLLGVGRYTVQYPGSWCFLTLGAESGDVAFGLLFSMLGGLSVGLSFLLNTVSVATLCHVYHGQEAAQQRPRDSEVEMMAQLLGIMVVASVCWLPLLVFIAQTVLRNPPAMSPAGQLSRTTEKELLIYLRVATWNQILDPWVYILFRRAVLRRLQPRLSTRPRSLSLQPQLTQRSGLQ

| Molecule | AC50 |
| --- | --- |
| CC(C)(C)NCC(O)COc1cccc2c1CC(O)C(O)C2 (stereo not drawn) [NADOLOL] | > 10 µM |
| Cc1cccc(Nc2ccncc2S(=O)(=O)NC(=O)NC(C)C)c1 [TORSEMIDE] | 20.8 µM |

Proceed to the following item.
Reported AC50, molecule CCC(NC(C)C)C(O)c1ccc(O)c(O)c1 (stereo not drawn) [ISOETHARINE] : ____
> 30 µM
